Origin of measurements: ChEMBL document CHEMBL4765232

Entries and their inhibition at 10 µM
ASSAYED_SYSTEM: CYP2C9 (Homo sapiens)
Sequence (P11712 whole entry): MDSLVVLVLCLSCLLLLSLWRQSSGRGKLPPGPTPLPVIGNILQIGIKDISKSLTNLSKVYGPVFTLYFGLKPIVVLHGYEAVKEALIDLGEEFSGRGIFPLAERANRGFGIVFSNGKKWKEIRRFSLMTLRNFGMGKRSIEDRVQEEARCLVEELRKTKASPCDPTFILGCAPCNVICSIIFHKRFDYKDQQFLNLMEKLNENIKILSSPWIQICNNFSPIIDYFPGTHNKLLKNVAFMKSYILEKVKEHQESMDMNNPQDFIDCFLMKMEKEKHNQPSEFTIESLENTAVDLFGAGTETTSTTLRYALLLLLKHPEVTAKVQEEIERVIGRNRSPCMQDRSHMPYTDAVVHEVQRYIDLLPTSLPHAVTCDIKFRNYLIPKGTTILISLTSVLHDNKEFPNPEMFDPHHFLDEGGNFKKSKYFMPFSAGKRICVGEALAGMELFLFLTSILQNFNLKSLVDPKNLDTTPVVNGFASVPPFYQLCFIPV
PROCEDURE_SUMMARY: Inhibition of CYP2C9 (unknown origin) at 10 uM relative to control
Type: ADME

COMPOUND	UNIT_ABBREV	inhibition at 10 µM
COc1cc(C)[nH]c(=O)c1CNC(=O)c1c(C)n([C@H](C)C2CCN(CCC(F)(F)F)CC2)c2ccccc12	%	11.6
COc1cc(C)[nH]c(=O)c1CNC(=O)c1c(C)n([C@H](C)C2CCN(CC(C)(F)F)CC2)c2ccccc12	%	5
COc1cc(C)[nH]c(=O)c1CNC(=O)c1c(C)n([C@H](C)C2CCN(CC(F)F)CC2)c2ccccc12	%	25.4
COc1cc(C)[nH]c(=O)c1CNC(=O)c1c(C)n([C@H](C)C2CCN(CC(F)(F)F)CC2)c2ccccc12 [CPI-1205]	%	11.1

----------
PROCEDURE_SUMMARY: Clearance in Sprague-Dawley rat at 1 mg/kg, iv
Format: ADME, organism-based
TEST_PARAMETERS: in vivo
READOUT_TYPE: clearance (mL/min/kg)

CHEMICAL_STRING	UNIT_ABBREV	QUANTITATIVE_RESULT
COc1cc(C)[nH]c(=O)c1CNC(=O)c1c(C)n([C@H](C)C2CCN(CC(F)(F)F)CC2)c2ccccc12	mL/min/kg	53.2

----------
PROCEDURE_SUMMARY: Protein binding in dog plasma assessed as bound fraction
Type: ADME, cell-free, Canis lupus familiaris
TEST_PARAMETERS: read-out: PPB (converted)

COMPOUND	fraction unbound
COc1cc(C)[nH]c(=O)c1CNC(=O)c1c(C)n([C@H](C)C2CCN(CC(C)(F)F)CC2)c2ccccc12	0.064
COc1cc(C)[nH]c(=O)c1CNC(=O)c1c(C)n([C@H](C)C2CCN(CCC(F)(F)F)CC2)c2ccccc12	0.037
COc1cc(C)[nH]c(=O)c1CNC(=O)c1c(C)n([C@H](C)C2CCN(CC(F)(F)F)CC2)c2ccccc12 [CPI-1205]	0.097
COc1cc(C)[nH]c(=O)c1CNC(=O)c1c(C)n([C@H](C)C2CCN(CC(F)F)CC2)c2ccccc12	0.357

----------
PROCEDURE_SUMMARY: Drug concentration in tumor of CB17 SCID mouse xenografted with human KARPAS-422 cells at 160 mg/kg, po BID administered for 17 days and measured up to 12 hrs post last dose by LC-MS analysis
Format: ADME, organism-based, Neoplasm
TEST_PARAMETERS: time 17 day, read-out: Ct
READOUT_TYPE: concentration at 408 h (ng/g)

CHEMICAL_STRING	QUANTITATIVE_RESULT
COc1cc(C)[nH]c(=O)c1CNC(=O)c1c(C)n([C@H](C)C2CCN(CC(F)(F)F)CC2)c2ccccc12	5290

----------
PROCEDURE_SUMMARY: Volume of distribution at steady state in Beagle dog at 1 mg/kg, iv
Format: ADME, organism-based, Canis lupus familiaris
TEST_PARAMETERS: in vivo, read-out: Vdss

CHEMICAL_STRING	Vd / L/kg
COc1cc(C)[nH]c(=O)c1CNC(=O)c1c(C)n([C@H](C)C2CCN(CC(F)(F)F)CC2)c2ccccc12	1.6
